Can you tell me IC50 for the items I'm about to list?
System: human cloned dopamine D4.2 receptors (Homo sapiens, UniProt P21917, DEL265-296)
Sequence (P21917 with tags, fused parts or gaps DEL265-296): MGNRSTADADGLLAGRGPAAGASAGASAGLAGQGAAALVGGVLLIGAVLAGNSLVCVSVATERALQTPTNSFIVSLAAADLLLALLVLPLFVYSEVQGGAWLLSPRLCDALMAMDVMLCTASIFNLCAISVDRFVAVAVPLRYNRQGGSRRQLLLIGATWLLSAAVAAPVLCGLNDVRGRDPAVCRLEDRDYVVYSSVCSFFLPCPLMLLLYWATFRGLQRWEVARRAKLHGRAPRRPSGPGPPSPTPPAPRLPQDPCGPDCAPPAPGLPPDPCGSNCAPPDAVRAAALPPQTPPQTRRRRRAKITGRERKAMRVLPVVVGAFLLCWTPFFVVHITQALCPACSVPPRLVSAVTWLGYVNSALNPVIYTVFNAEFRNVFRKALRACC
Protocol notes: Inhibition of the binding of 3H-YM-09151-2 to human dopamine D4 receptors
Experimental parameters: human cloned dopamine D4.2 receptors in CHO-cells

>  <Molecule>
Fc1cc(F)c(OCCCN2CCN(c3cccc4ccsc34)CC2)c(Br)c1 [Compound 5bt]

>  <System>
human cloned dopamine D4.2 receptors (Homo sapiens, UniProt P21917, DEL265-296)

>  <IC50>
6.3 nM

$$$$
>  <Molecule>
Fc1ccc(OCCCN2CCN(c3cccc4c3OCCO4)CC2)c(F)c1 [Compound 5cf]

>  <System>
human cloned dopamine D4.2 receptors (Homo sapiens, UniProt P21917, DEL265-296)

>  <IC50>
1.4 nM

$$$$
>  <Molecule>
Fc1cc(Br)cc(F)c1OCCCN1CCN(c2cccc3c2OCCO3)CC1 [Compound 5cg]

>  <System>
human cloned dopamine D4.2 receptors (Homo sapiens, UniProt P21917, DEL265-296)

>  <IC50>
12 nM

$$$$

# map each molecule to its IC50
1. Clc1ccccc1SCCCN1CCN(c2cccc3ccsc23)CC1 [Compound 5ce]
2. Fc1ccc(OCCCCN2CCN(c3cccc4ccsc34)CC2)c(Cl)c1 [Compound 5bc]
3. Fc1cc(Cl)c(OCCCN2CCN(c3cccc4c3OCCO4)CC2)c(Cl)c1 [Compound 5at]
4. Fc1cc(Br)cc(F)c1OCCCCN1CCN(c2cccc3ccsc23)CC1 [Compound 5cc]

Response given:
1. 16 nM
2. 1.9 nM
3. 3.4 nM
4. 34 nM

# map each molecule to its IC50
1. Fc1ccc(SCCCN2CCN(c3cccc4ccsc34)CC2)c(Cl)c1 [Compound 2e]
2. Fc1ccc(SCCN2CCN(c3cccc4c3OCCO4)CC2)cc1 [Compound 3b]

Response given:
["5.4 nM", "4.3 nM"]
